Data origin: patent US12448363B2

# Tested on: BTK Activity in RAMOS B Cells
# Method description: Assay to determine BTK activity in RAMOS B cells (anti-IgM, FLIPR Calcium 6)
# Type: cell-based
# Measurement context: EC80 anti-IgM, FLIPR calcium read
pIC50: −log10 of the molar value.
Outcome measure: pIC50

C=CC(=O)N1CCCc2c(cccc2-c2c(F)cc(C(N)=O)c3[nH]c(C)c(Cl)c23)C1 (single isomer, unassigned) [Compound 25d] = ≤ 7.00
C=CC(=O)N1CCc2c(cccc2-c2c(F)c(F)c(C(N)=O)c3[nH]c(C)c(Cl)c23)C1 (atropisomer, axis not shown) [Compound 21c] = ≤ 7.00
C=CC(=O)N1CCc2c(-c3c(F)cc(C(N)=O)c4[nH]c(C)c(Cl)c34)cccc2[C@H]1C (single isomer, unassigned) [Compound 22b] = ≤ 7.00
C=CC(=O)N1CCc2c(cccc2-c2c(F)cc(C(N)=O)c3[nH]c(C)c(F)c23)C1 (atropisomer, axis not shown) [Compound 20e] = > 8.00
C=CC(=O)N1CCc2c(-c3c(F)cc(C(N)=O)c4[nH]c(C)c(Cl)c34)cccc2[C@H]1C (single isomer, unassigned) [Compound 22e] = > 8.00
C=CC(=O)N1Cc2cccc(-c3c(F)cc(C(N)=O)c4[nH]c(C)c(Cl)c34)c2C2(CC2)C1 (single isomer, unassigned) [Compound 24d] = ≤ 7.00

[ask] # lookup: pIC50 of C=CC(=O)N1CCc2c(cccc2-c2c(F)cc(C(N)=O)c3[nH]c(C)c(C#N)c23)C1 (atropisomer, axis not shown) [Compound 20h]
[reply] ≤ 7.00

[ask] # lookup: pIC50 of C=CC(=O)N1CCc2c(cccc2-c2c(F)c(F)c(C(N)=O)c3[nH]c(C)c(Cl)c23)C1 [Compound 21a]
[reply] 7.00 to 8.00

[ask] # lookup: pIC50 of C=CC(=O)N1CCc2c(cccc2-c2c(F)cc(C(N)=O)c3[nH]c(C)c(Cl)c23)C1 (single isomer, unassigned) [Compound 20b]
[reply] > 8.00

[ask] # lookup: pIC50 of C=CC(=O)N1CCc2c(cccc2-c2c(F)c(F)c(C(N)=O)c3[nH]c(C)c(Cl)c23)C1 (atropisomer, axis not shown) [Compound 21b]
[reply] > 8.00

[ask] # lookup: pIC50 of C=CC(=O)N1CCc2c(-c3c(F)cc(C(N)=O)c4[nH]c(C)c(Cl)c34)cccc2[C@@H]1C (single isomer, unassigned) [Compound 22d]
[reply] ≤ 7.00

[ask] # lookup: pIC50 of C=CC(=O)N1CCc2c(cccc2-c2c(F)cc(C(N)=O)c3[nH]c(C)c(F)c23)C1 (atropisomer, axis not shown) [Compound 20f]
[reply] ≤ 7.00

###

# Tested on: BTK Activity in RAMOS B Cells
# Method description: Assay to determine BTK activity in RAMOS B cells (anti-IgM, FLIPR Calcium 6)
# Type: cell-based
# Measurement context: EC80 anti-IgM, FLIPR calcium read
# Description: On the day before assay, Ramos B cells were plated in plating medium (RPMI1640 medium containing 1% FBS and 1× pencillin-streptomycin). On the day of the assay, 2× dye solution was prepared following the manual of the FLIRP Calcium 6 Assay Kit: Dilute the dye with assay buffer (20 mM HEPES in 1×HBSS, pH7.4); Add probenecid to the final concentration of 5 mM; vortex vigorously for 1-2 minutes. […] Plates were read for 160 sec with 1 sec interval. […]
pIC50: −log10 of the molar value.
Outcome measure: pIC50

C=CC(=O)N1CCC2CCN(c3c(F)cc(C(N)=O)c4[nH]c(C)c(Cl)c34)CC21 (single isomer, unassigned) [Compound 29b] = 7.00 to 8.00
C=CC(=O)N1CCc2c(cccc2-c2c(F)cc(C(N)=O)c3[nH]c(C)c(C#N)c23)C1 [Compound 20g] = 7.00 to 8.00
C=CC(=O)N1CCc2c(cccc2-c2c(F)cc(C(N)=O)c3[nH]c(C)c(Cl)c23)C1 (single isomer, unassigned) [Compound 20c] = ≤ 7.00
C=CC(=O)N1CCC2CCN(c3c(F)cc(C(N)=O)c4[nH]c(C)c(C)c34)CC21 (single isomer, unassigned) [Compound 32b] = 7.00 to 8.00

Now, please, on to the next compound.
[ask] # lookup: pIC50 of C=CC(=O)N1CCc2c(cccc2-c2c(F)cc(C(N)=O)c3[nH]c(C)c(C#N)c23)C1 (atropisomer, axis not shown) [Compound 20i]
[reply] 7.00 to 8.00

###

# Measured on: BTK (Homo sapiens, UniProt Q06187)
# Sequence (Q06187 whole entry): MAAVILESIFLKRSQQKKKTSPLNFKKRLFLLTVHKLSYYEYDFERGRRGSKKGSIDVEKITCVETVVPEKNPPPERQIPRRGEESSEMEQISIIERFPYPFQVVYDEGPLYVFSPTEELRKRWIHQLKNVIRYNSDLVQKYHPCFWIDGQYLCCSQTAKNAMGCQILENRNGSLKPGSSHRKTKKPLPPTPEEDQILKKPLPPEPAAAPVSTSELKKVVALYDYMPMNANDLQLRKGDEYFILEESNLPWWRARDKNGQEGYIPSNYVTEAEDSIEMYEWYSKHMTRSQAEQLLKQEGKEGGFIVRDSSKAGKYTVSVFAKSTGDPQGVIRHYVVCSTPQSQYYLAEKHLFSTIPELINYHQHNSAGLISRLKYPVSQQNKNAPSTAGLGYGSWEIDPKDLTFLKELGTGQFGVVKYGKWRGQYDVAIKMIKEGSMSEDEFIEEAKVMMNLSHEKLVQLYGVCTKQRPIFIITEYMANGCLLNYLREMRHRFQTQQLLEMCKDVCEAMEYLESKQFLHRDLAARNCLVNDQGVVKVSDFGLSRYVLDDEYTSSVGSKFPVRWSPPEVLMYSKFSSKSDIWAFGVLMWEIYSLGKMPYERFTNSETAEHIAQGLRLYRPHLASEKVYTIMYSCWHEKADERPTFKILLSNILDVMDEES
# Method description: Assay to determine BTK inactivation rate in human whole blood (ELISA of unoccupied BTK)
# Format: cell-based
# Set-up: Human whole blood is obtained from StemExpress; tissue StemExpress; host or cells: human whole blood
# Measurement context: 37° C., 5, 15, 30, 60 minutes, read-out: BTK hWB Kinact/Ki
# kinact/KI values compiled below

// known answers, use as guide
C=CC(=O)N1CCC[C@H](c2c(F)cc(C(N)=O)c3[nH]c(C)c(Cl)c23)C1 = 1670 to 16700 M⁻¹ s⁻¹
C=CC(=O)N1CCC[C@H](c2c(F)c(F)c(C(N)=O)c3[nH]c(C)c(F)c23)C1 = > 16700 M⁻¹ s⁻¹
C=CC(=O)N1CCC2CCN(c3c(F)cc(C(N)=O)c4[nH]c(C)c(Cl)c34)CC21 (single isomer, unassigned) [Compound 29a] = < 1670 M⁻¹ s⁻¹
C=CC(=O)N1CCC[C@@H](c2c(F)c(F)c(C(N)=O)c3[nH]c(C)c(Cl)c23)C1 = > 16700 M⁻¹ s⁻¹
CC#CC(=O)N[C@H]1CCCN(c2c(F)cc(C(N)=O)c3[nH]c(C)c(C)c23)C1 [Branebrutinib, reference compound] = > 16700 M⁻¹ s⁻¹
C=CC(=O)N1CCc2c(cccc2-c2c(F)cc(C(N)=O)c3[nH]c(C)c(Cl)c23)C1 (single isomer, unassigned) [Compound 20b] = 1670 to 16700 M⁻¹ s⁻¹

Now, please, on to the next compound.
[ask] # lookup: kinact/KI of C=CC(=O)N1CCC[C@@H](c2c(F)c(F)c(C(N)=O)c3[nH]c(C)c(F)c23)C1
[reply] > 16700 M⁻¹ s⁻¹

###

This document collects IC50 values reported for BTK (Homo sapiens, UniProt Q06187).

// known answers, use as guide
C=CC(=O)N1CCC2CCN(c3c(F)cc(C(N)=O)c4[nH]c(C)c(Cl)c34)CC21 (single isomer, unassigned) [Compound 29b] = < 10 nM
C=CC(=O)N1CCc2c(cccc2-c2c(F)c(F)c(C(N)=O)c3[nH]c(C)c(Cl)c23)C1 (atropisomer, axis not shown) [Compound 21b] = < 10 nM
C=CC(=O)N1CCc2c(cccc2-c2c(F)c(F)c(C(N)=O)c3[nH]c(C)c(Cl)c23)C1 [Compound 21a] = < 10 nM

[ask] Observed IC50 on BTK (Homo sapiens, UniProt Q06187) for CC#CC(=O)N[C@H]1C[C@H](F)CN(c2c(F)cc(C(N)=O)c3[nH]c(C)c(C)c23)C1 , please.
[reply] < 10 nM

[ask] Observed IC50 on BTK (Homo sapiens, UniProt Q06187) for C=CC(=O)N1CCC[C@H](c2c(F)c(F)c(C(N)=O)c3[nH]c(C)c(Cl)c23)C1 , please.
[reply] 10 to 100 nM

[ask] Observed IC50 on BTK (Homo sapiens, UniProt Q06187) for C=CC(=O)N1CCc2c(cccc2-c2c(F)cc(C(N)=O)c3[nH]c(C)c(Cl)c23)C1 (single isomer, unassigned) [Compound 20c] , please.
[reply] ≥ 100 nM

[ask] Observed IC50 on BTK (Homo sapiens, UniProt Q06187) for C=CC(=O)N1CCc2c(-c3c(F)cc(C(N)=O)c4[nH]c(C)c(Cl)c34)cccc2[C@H]1C (single isomer, unassigned) [Compound 22b] , please.
[reply] ≥ 100 nM

[ask] Observed IC50 on BTK (Homo sapiens, UniProt Q06187) for C=CC(=O)N1CCc2c(-c3c(F)cc(C(N)=O)c4[nH]c(C)c(Cl)c34)cccc2[C@H]1C (single isomer, unassigned) [Compound 22e] , please.
[reply] < 10 nM

[ask] Observed IC50 on BTK (Homo sapiens, UniProt Q06187) for C=CC(=O)N1CCc2c(cccc2-c2c(F)c(F)c(C(N)=O)c3[nH]c(C)c(C#N)c23)C1 [Compound 21e] , please.
[reply] 10 to 100 nM

[ask] Observed IC50 on BTK (Homo sapiens, UniProt Q06187) for C=CC(=O)N1CCC[C@H](c2c(F)cc(C(N)=O)c3[nH]c(C)c(C(F)F)c23)C1 , please.
[reply] ≥ 100 nM

[ask] Observed IC50 on BTK (Homo sapiens, UniProt Q06187) for C=CC(=O)N1CCC[C@H](c2c(F)cc(C(N)=O)c3[nH]c(C)c(Cl)c23)C1 , please.
[reply] 10 to 100 nM

[ask] Observed IC50 on BTK (Homo sapiens, UniProt Q06187) for CC#CC(=O)N[C@H]1C[C@@H](F)CN(c2c(F)cc(C(N)=O)c3[nH]c(C)c(Cl)c23)C1 , please.
[reply] < 10 nM

[ask] Observed IC50 on BTK (Homo sapiens, UniProt Q06187) for C=CC(=O)N1CC(F)CC(c2c(F)cc(C(N)=O)c3[nH]c(C)c(Cl)c23)C1 (centres unmarked) , please.
[reply] < 10 nM

[ask] Observed IC50 on BTK (Homo sapiens, UniProt Q06187) for C=CC(=O)N1CCCC(c2c(F)c(F)c(C(N)=O)c3[nH]c(C)c(Cl)c23)C1 (centres unmarked) , please.
[reply] < 10 nM
